- MEASUREMENT_PROTOCOL: inhibitors of TNFa-induced NFkB p65 translocation, primary screen, imaging, HUVEC, MLSMR starter and 10KST1 sets (AID 438);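 note: compound added about 3h40 before a 20 min TNFalpha stimulation; signal is the nuclear over cytoplasmic p65 intensity ratio per well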
- CONDITION_SET: HUVEC TNFa-induced p65 nuclear translocation; at 2 µM, active compounds read high, 0% TNFa-plus-vehicle, 100% no-TNFa wells
Active and inactive are the calls of the source.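 Rule for the calls: active = inhibition above 20% together with a positive visual image hit; inconclusive = visual image hit but inhibition not above 20%; inactive = no visual image hit.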 Where a SMILES comes first, the peptide text is derived from it. [ ]: non-standard residue; d: D form. The star is where a group is joined. ξ: configuration not given here. Cbz = O=C(OCc1ccccc1)*; ξK = NCCCCC(N)C(=O)O
Each record here notes measured inhibition.
QUANTITY_KIND: inhibition

| COMPOUND | QUANTITY_KIND | OBSERVED |
| --- | --- | --- |
| COc1ccccc1NC1=NC(c2ccc(Cl)cc2)N=C(N)N1 (configuration not stated) | inhibition | 5.2% (inactive) |
| Cc1noc(C)c1CSc1nnc2n(-c3ccccc3)c(=O)c3ccccc3n12 | inhibition | -4% (inactive) |
| CCCC(NC(=O)c1ccccc1)c1nc2ccccc2n1Cc1ccc(C(=O)OC)o1 (configuration not stated) | inhibition | 5.5% (inactive) |
| OCCNc1nc2ccc(Cl)cc2[nH]1 | inhibition | 2.6% (inactive) |
| Cc1ccc(NC(=O)C2CCCN(S(=O)(=O)c3cnc[nH]3)C2)cc1F (configuration not stated) | inhibition | 0.9% (inactive) |
| CCCCN1C(=O)C2C(C(=O)Nc3cccc(OC)c3)C3C=CC2(O3)C1C(=O)NC1CCCCC1C (configuration not stated) | inhibition | 3.1% (inactive) |
| Cc1cccc(C)c1OCc1nnc(SCC(=O)Nc2ccccc2F)o1 | inhibition | -12% (inactive) |
| CCOC(=O)/C(C#N)=C(/C)c1ccc(OC)cc1 | inhibition | -9.6% (inactive) |
| CS(=O)(=O)NCC(c1cccnc1)N1CCN(c2ccc(F)cc2)CC1 (configuration not stated) | inhibition | -10.2% (inactive) |
| Cc1ccc(Cn2c(=N)c(C(=O)NCc3ccco3)cc3c(=O)n4ccccc4nc32)cc1 | inhibition | 1.5% (inactive) |
| O=C(CSc1nc2ccccc2s1)N1CCOCC1 | inhibition | 0.5% (inactive) |
| Cc1cc(Oc2ccccc2)nc(-c2ccccc2)n1 | inhibition | 4.4% (inactive) |
| Cc1cccc(N2CCN(C(=O)CCn3c(=S)[nH]c4cc5c(cc4c3=O)OCO5)CC2C)c1 (configuration not stated) | inhibition | 3% (inactive) |
| CCCCc1noc2c1/C(=N\O)CC(c1ccccc1)C2 (configuration not stated) | inhibition | 2% (inactive) |
| Cc1nc(SCC(=O)Nc2cc(C)on2)c2c3c(sc2n1)CCCC3 | inhibition | 2.5% (inactive) |
| CCOC(=O)c1ccccc1NC(=O)c1cccnc1 | inhibition | 5.5% (inactive) |
| CC1CN(c2ccc(Oc3ccccc3)cc2)c2nc3c(c(=O)n(CC(N)=O)c(=O)n3C)n2C1 (configuration not stated) | inhibition | -12.4% (inactive) |
| c1ccc(CCNc2ccc3nncn3n2)cc1 | inhibition | 5.8% (inactive) |
| Cc1ccc2cc(CN(Cc3ccc(F)cc3)Cc3nnnn3C3CCCC3)c(=O)[nH]c2c1 | inhibition | -10.8% (inactive) |
| COC(=O)Cc1cc(=O)[nH]c(Nc2nc3ccccc3o2)n1 | inhibition | -1.4% (inactive) |
| Cc1oc(-c2ccc(Cl)cc2)nc1CS(=O)CC(=O)NCCCN(C)C1CCCCC1 (configuration not stated) | inhibition | 3.8% (inactive) |
| O=C(c1ccc(Br)o1)N(c1ccc(Br)cc1)C1C=CS(=O)(=O)C1 (configuration not stated) | inhibition | -21.1% (inactive) |
| FC(F)(F)c1cc(-c2ccco2)nc(NCc2ccco2)n1 | inhibition | 14.6% (inactive) |
| COc1ccc(C)cc1NS(=O)(=O)c1ccc(NS(=O)(=O)c2ccc(NC(C)=O)cc2)cc1 | inhibition | -7.8% (inactive) |
| O=C(CCSc1nc(-c2ccco2)cc(C(F)(F)F)n1)NCCc1ccccc1 | inhibition | -8.3% (inactive) |
| CCN1CCN(C(c2ccc(F)cc2)c2nnnn2Cc2cccs2)CC1 (configuration not stated) | inhibition | -8.6% (inactive) |
| CC(C)c1ccc(-c2nc(N3CCOCC3)[nH]c(=O)c2C#N)cc1 | inhibition | -8.9% (inactive) |
| CCn1nnc(NC(=O)c2ccc(-c3ccc(Cl)cc3)o2)n1 | inhibition | -6.7% (inactive) |
| O=c1[nH]c(SCc2ccc(F)cc2)nc2c1cnn2-c1ccc(F)cc1 | inhibition | -31% (inactive) |
| COC(=O)C(CCCCNC(=O)OCc1ccccc1)NC(=O)CN (configuration not stated) (H-Gly-[ξK](Cbz)-OMe) | inhibition | -6.5% (inactive) |
| COc1ccc(CCNC(=O)c2cc3sc(Cl)cc3n2C)cc1OC | inhibition | 4.1% (inactive) |
| COc1ccc(-c2nnc(SCC(=O)NC(C)c3ccccc3)o2)cc1 (configuration not stated) | inhibition | 4.4% (inactive) |
| COc1cccc(C2CC(c3c(Cl)cccc3Cl)n3nc(N)nc3N2)c1 (configuration not stated) | inhibition | 13.8% (inactive) |
| Cn1c(=O)[nH]c(=O)c2c1nc(NC1CCCCC1)n2CC(=O)NC1CCCCC1 | inhibition | -14.7% (inactive) |
| COCC(=O)N(C)c1nnc(-c2ccccn2)s1 | inhibition | 1.4% (inactive) |
| CN(C)/C=N/c1ncnc2c1cnn2-c1ccc(C(F)(F)F)cn1 | inhibition | -0.9% (inactive) |
| COc1ccc(N2CCN(Cc3nc(-c4ccc(Cl)cc4Cl)no3)CC2)cc1 | inhibition | -0.7% (inactive) |
| CC1(C)C(=O)Nc2ccccc2N1C(=O)COC(=O)Cn1cnc2ccccc2c1=O | inhibition | 2.5% (inactive) |
| COCCn1c(-c2ccco2)nc2nc3ccccc3nc21 | inhibition | 1.6% (inactive) |
| O=C(C1CCCN(S(=O)(=O)c2cccnc2)C1)N1CCn2c1nc1ccccc12 (configuration not stated) | inhibition | -11.6% (inactive) |
| CCOC(=O)Cc1nnc(NC(=O)c2ccccc2OCC)s1 | inhibition | 12.6% (inactive) |
| COc1ccc(-c2nc3c(c(SCC(=O)N4CCOCC4)n2)COC(C)(C)C3)cc1 | inhibition | 23.4% (active) |
